List of pIC50 values.
target: human TLR8 (Homo sapiens, UniProt Q9NR97); experiment: HEK293-Blue-hTLR-8 cells assay; details: HEK293-Blue-hTLR8 cells, R848 stimulation, 20 hrs, SEAP reporter; read-out: HEK/hTLR8 IC50
Sequence (Q9NR97 27-1041): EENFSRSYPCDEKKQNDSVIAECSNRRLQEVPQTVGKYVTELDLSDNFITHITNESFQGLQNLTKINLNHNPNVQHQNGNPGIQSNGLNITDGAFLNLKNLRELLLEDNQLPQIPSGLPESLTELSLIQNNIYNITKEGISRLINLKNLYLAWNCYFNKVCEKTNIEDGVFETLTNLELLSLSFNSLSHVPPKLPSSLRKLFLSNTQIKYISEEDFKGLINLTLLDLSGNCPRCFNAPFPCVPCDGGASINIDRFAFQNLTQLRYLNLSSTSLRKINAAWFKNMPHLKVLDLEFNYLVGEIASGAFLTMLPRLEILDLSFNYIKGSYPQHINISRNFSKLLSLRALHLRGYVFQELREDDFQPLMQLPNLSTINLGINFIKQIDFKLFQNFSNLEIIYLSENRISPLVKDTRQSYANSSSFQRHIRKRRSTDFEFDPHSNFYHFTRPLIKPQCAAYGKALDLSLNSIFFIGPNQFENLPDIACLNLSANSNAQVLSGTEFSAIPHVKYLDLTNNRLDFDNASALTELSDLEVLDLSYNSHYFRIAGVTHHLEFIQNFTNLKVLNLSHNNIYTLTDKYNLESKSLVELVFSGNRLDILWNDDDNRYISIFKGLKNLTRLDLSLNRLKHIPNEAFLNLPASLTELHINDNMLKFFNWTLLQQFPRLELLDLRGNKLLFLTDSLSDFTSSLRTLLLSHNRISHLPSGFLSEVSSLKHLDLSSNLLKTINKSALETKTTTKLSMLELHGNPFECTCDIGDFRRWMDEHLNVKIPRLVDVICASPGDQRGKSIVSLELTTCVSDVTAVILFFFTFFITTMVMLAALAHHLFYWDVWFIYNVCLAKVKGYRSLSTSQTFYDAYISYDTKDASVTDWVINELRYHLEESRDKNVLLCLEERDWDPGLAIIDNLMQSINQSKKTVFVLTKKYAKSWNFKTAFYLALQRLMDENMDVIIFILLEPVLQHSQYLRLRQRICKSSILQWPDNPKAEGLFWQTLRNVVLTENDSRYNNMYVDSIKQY
pIC50 is a log-scale quantity: -log10 of the concentration expressed in molar.

• Cc1cc(N2CC[C@H](NC[C@H]3CN(c4ccc(C#N)c5ncccc45)C[C@@H](C)O3)C2)cc(CO)n1 [Example 29] = 7.60
• C[C@@H]1CN(c2ccc(C#N)c3ncccc23)C[C@H](CN2CCN(c3cc(N)nc(CO)c3)CC2)O1 [Example 45] = 7.85
• Cc1cc(N2CC[C@@H](NC[C@H]3CN(c4ccc(C#N)c5ncccc45)C[C@@H](C)O3)C2)cc(CO)n1 [Example 28] = 7.49

Ask: State the recorded pIC50 for this entry: CC(O)c1cc(N2CC3(CN(C[C@H]4CN(c5ccc(C#N)c6ncccc56)C[C@@H](C)O4)C3)C2)ccn1 (stereo partly drawn) [Example 46]
Reply: 7.05

Ask: Param item = Cc1cc(N2CCC3(CN(C[C@H]4CN(c5ccc(C#N)c6ncccc56)C[C@@H](C)O4)C3)C2)cc(C)n1 [Example 9] ; retrieve measured pIC50.
Reply: 7.29

Ask: So what's the measured pIC50 for this one? Cc1cc(N2CCC(NC[C@H]3CN(c4ccc(C#N)c5ncccc45)C[C@@H](C)O3)CC2)cc(CO)n1 [Example 23]
Reply: 7.39

Ask: pIC50 for C[C@@H]1CN(c2ccc(C#N)c3ncccc23)C[C@H](CN2CC3(C2)CN(c2ccnc(C(C)(C)O)c2)C3)O1 [Example 48] ?
Reply: 6.70

Ask: What does the data say about its pIC50? Entry: Cc1cc(N2CCC[C@H](NC[C@H]3CN(c4ccc(C#N)c5ncccc45)C[C@@H](C)O3)C2)cc(CO)n1 [Example 25]
Reply: 7.85

Ask: Quick one: pIC50 of Cc1cc(N2CCC[C@@H](NC[C@H]3CN(c4ccc(C#N)c5ncccc45)C[C@@H](C)O3)C2)cc(CO)n1 [Example 24] ?
Reply: 8.00

Ask: Give the measured pIC50 of Cc1cc(N2CCC23CN(C[C@H]2CN(c4ccc(C#N)c5ncccc45)C[C@@H](C)O2)C3)cc(CO)n1 [Example 12] .
Reply: 7.92

Ask: If you can, please state the reported pIC50 value of Cc1cc(N2CCN(C[C@H]3CN(c4ccc(C#N)c5ncccc45)C[C@@H](C)O3)CC2)cc(CO)n1 [Example 50] .
Reply: 8.40

Ask: Record request: pIC50 value, item C[C@@H]1CN(c2ccc(C#N)c3ncccc23)C[C@H](CNC2CCN(c3ccnc(N)c3)CC2)O1 [Example 20]
Reply: 7.15

###

biological target: UniProt Q9NR96; assay: HEK293-Blue-hTLR-9 cells assay; type: cell-based; parameters: host or cells: HEK293-Blue-hTLR-9 (HEK293); conditions: HEK293-Blue-hTLR9 cells, ODN2006 stimulation, 20 hrs, SEAP reporter; read-out: HEK/hTLR9 IC50
Sequence (Q9NR96 26-1032): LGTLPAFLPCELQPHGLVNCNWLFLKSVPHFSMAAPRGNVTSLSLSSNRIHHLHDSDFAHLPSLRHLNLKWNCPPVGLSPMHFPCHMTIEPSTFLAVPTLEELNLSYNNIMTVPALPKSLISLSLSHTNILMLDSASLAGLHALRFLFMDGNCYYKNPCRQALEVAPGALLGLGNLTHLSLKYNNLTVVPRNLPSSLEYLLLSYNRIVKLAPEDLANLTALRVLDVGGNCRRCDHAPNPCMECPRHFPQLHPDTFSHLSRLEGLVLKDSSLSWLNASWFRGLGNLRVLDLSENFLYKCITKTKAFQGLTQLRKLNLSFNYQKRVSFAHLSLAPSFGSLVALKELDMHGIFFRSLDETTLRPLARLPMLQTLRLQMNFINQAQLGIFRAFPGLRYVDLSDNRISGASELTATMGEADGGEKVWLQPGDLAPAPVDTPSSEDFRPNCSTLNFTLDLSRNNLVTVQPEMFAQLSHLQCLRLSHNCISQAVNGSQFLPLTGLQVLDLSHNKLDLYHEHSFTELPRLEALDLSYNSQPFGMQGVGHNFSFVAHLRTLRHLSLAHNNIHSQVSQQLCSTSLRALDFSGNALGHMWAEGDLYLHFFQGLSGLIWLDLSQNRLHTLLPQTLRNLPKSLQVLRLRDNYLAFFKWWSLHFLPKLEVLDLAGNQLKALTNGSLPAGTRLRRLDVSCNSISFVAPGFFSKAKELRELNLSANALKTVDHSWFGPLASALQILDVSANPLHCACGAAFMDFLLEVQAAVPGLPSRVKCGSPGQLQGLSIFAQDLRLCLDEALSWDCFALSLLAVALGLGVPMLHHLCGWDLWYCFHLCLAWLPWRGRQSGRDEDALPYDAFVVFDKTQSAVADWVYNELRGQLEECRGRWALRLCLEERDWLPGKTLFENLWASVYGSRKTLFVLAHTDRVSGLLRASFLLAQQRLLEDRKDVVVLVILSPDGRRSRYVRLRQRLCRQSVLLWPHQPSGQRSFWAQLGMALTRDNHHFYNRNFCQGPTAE
readout: pIC50
Worth noting: pIC50 values are minus log10 of concentrations stated in mol/L.

Here are 2 compounds together with their reported answers.
- Cc1cc(N2CCC[C@@H](N(C)C[C@H]3CN(c4ccc(C#N)c5ncccc45)C[C@@H](C)O3)C2)cc(CO)n1: 7.47
- Cc1cc(N(C)C2CN(C[C@H]3CN(c4ccc(C#N)c5ncccc45)C[C@@H](C)O3)C2)cc(C)n1: 7.40

Please turn your attention to the following entry.
Ask: Any idea what pIC50 came out for "Cc1cc(N2CC(N(C)C[C@H]3CN(c4ccc(C#N)c5ncccc45)C[C@@H](C)O3)C2)cc(CO)n1" on UniProt Q9NR96?
Reply: 6.80
